Record form. Attribute: growth. Fill in for each entry.
test system: RXF 393 renal; test: NCI-60 one-dose screen, 48 h (100 = growth as untreated, 0 = no growth, -100 = all killed); conditions: 10 µM unless noted
The panel holds about 83,000 compounds, 20% with a hit somewhere; the sample as a whole holds those more often. Activity calls are given as the source filed them. How the source made its calls: active means growth percent below 10; inactive means the rest.

Per the record, CCCCNCCc1ccccn1 has growth of 113% (inactive)

Per the record, O=C(O)C1[O][Sb][O]C1C(=O)O (centres undefined) has growth of 116% (inactive)

Per the record, CCCCCCCCCCCCOc1ccc(C(=O)Oc2ccc(CSP3(=O)OCC4OC(n5cnc6c(N)ncnc65)C(F)C4OP(=O)(O)OCC4OC(n5ccc(=O)[nH]c5=O)C(F)C4O3)cc2)cc1 (centres undefined) has growth of 60.8% (inactive)

Per the record, Cc1nnc([S-])s1.[Au+].c1ccc([PH+](c2ccccc2)c2ccccc2)cc1 has growth of -84.6% (active)

Per the record, CCC[CH2][Sn]1([CH2]CCC)[O]C(=O)c2cccc([N+](=O)[O-])c2C(=O)[O]1 has growth of -95.2% (active)

Per the record, Oc1ccc(Br)cc1CN1CCN(Cc2ccc(Cl)cc2)CC1 has growth of 76.7% (inactive)

Per the record, CC(C)[C@]12O[C@H]1[C@@H]1O[C@]13[C@]1(O[C@H]1C[C@H]1C4=C(CC[C@@]13C)C(=O)OC4)[C@@H]2OC(=O)OC(C)(C)C has growth of -52.2% (active)

Per the record, O=[N+]([O-])c1ccc(/C=C/C=C/c2ccc(S(=O)(=O)F)cc2)c(Cl)c1 has growth of 92.2% (inactive)

Per the record, CC(=O)[O][Hg][c]1nc2c(c(=O)n(C)c(=O)n2C)n1C has growth of 97.6% (inactive)
